# MEASURED_TARGET: Liver carboxylesterase 1 (Homo sapiens)
# ASSAY_PROCEDURE: Inhibition of human carboxylesterase 1 using 2-(2'-benzoyl-3'-methoxylphenyl)-benzothiazole as substrate at 0.1 to 200 uM by fluorescence assay
READOUT: inhibition (INH)

# SMILES_REPRESENTATION, MEASURED_TARGET, REPORTED_VALUE
rows = [
    ("CC(=O)O[C@H]([C@@H]1C[C@@H](C)C2=C3C=C[C@H]4[C@@]5(C)CCC(=O)C(C)(C)[C@@H]5CC[C@]4(C)[C@@]3(C)C[C@@H]2O1)C(C)(C)O", "Liver carboxylesterase 1 (Homo sapiens)", "Not Active"),
    ("C[C@H](C[C@H](O)[C@@H](O)C(C)(C)O)C1=C2C[C@H](O)[C@H]3[C@@]4(C)CCC(=O)C(C)(C)[C@@H]4CC[C@]3(C)[C@@]2(C)C=C1", "Liver carboxylesterase 1 (Homo sapiens)", "Not Active"),
    ("CC(=O)C1=C2C=C[C@H]3[C@@]4(C)CCC(=O)C(C)(C)[C@@H]4CC[C@]3(C)[C@@]2(C)CC1=O", "Liver carboxylesterase 1 (Homo sapiens)", "Not Active"),
]

---

# MEASURED_TARGET: Liver carboxylesterase 1 (Homo sapiens, UniProt P23141)
# Sequence (P23141 whole entry): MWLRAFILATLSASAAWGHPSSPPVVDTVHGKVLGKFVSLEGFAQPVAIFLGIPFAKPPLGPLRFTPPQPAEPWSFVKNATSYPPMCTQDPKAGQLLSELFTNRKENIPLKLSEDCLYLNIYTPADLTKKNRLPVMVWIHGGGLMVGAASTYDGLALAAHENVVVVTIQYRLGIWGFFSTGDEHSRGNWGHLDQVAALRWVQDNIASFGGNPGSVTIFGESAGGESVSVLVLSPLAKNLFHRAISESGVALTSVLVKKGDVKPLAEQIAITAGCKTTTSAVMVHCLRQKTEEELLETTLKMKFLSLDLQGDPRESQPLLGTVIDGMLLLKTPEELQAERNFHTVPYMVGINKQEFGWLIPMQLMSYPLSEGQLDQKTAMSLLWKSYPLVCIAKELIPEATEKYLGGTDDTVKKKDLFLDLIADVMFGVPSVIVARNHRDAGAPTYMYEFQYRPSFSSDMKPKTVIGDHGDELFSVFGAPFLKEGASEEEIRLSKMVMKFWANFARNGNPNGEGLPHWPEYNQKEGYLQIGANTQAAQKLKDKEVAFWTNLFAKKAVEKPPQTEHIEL
# ASSAY_PROCEDURE: Inhibition of human carboxylesterase 1 using 2-(2'-benzoyl-3'-methoxylphenyl)-benzothiazole as substrate at 0.1 to 200 uM by fluorescence assay
READOUT: inhibition (INH)

# SMILES_REPRESENTATION, REPORTED_VALUE
data = [
    ("C[C@H](C[C@H](O)[C@@H](O)C(C)(C)O)C1=C2CC[C@H]3[C@@]4(C)CCC(=O)C(C)(C)[C@@H]4CC[C@]3(C)[C@@]2(C)CC1", "Not Active"),
    ("CCOC(C)(C)[C@H](O)[C@@H](O)C[C@@H](C)C1=C2C[C@H](O)[C@H]3[C@@]4(C)CCC(=O)C(C)(C)[C@@H]4CC[C@]3(C)[C@@]2(C)CC1", "Not Active"),
    ("C=C(C)[C@@H](O)[C@@H](O)C[C@@H](C)C1=C2C=C[C@H]3[C@@]4(C)CCC(=O)C(C)(C)[C@@H]4CC[C@]3(C)[C@@]2(C)CC1=O", "Not Active"),
]

---

# MEASURED_TARGET: Liver carboxylesterase 1 (Homo sapiens)
# ASSAY_PROCEDURE: Inhibition of human carboxylesterase 1 using 2-(2'-benzoyl-3'-methoxylphenyl)-benzothiazole as substrate at 0.1 to 200 uM by fluorescence assay
READOUT: inhibition (INH)

# SMILES_REPRESENTATION, REPORTED_VALUE
records = [
    ("C[C@H](CC(=O)[C@H](O)C(C)(C)O)C1=C2C=C[C@H]3[C@@]4(C)CCC(=O)C(C)(C)[C@@H]4CC[C@]3(C)[C@@]2(C)CC1=O", "Not Active"),
    ("C[C@H](C[C@H](O)[C@@H](O)C(C)(C)O)C1=C2C[C@H](O)[C@H]3[C@@]4(C)CCC(=O)C(C)(C)[C@@H]4CC[C@]3(C)[C@@]2(C)CC1", "Not Active"),
    ("CC(=O)O[C@@H](C[C@@H](C)C1=C2C=C[C@H]3[C@@]4(C)CCC(=O)C(C)(C)[C@@H]4CC[C@]3(C)[C@@]2(C)CC1=O)[C@H](O)C(C)(C)O", "Not Active"),
]
